biological target: von Willebrand factor A1 domain (human) (Homo sapiens, UniProt P04275 SEQ:13-246); experiment: filter; 100 nM protein
Sequence (P04275 1238-1471 T1381A): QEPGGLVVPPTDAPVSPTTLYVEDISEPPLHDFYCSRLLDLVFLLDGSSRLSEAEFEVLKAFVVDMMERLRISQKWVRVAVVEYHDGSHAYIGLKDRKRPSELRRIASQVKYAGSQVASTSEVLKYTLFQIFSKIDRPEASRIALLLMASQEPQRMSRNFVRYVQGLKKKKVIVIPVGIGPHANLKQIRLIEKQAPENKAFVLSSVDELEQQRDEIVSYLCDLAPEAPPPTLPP
result.type: binding signal

AMX200.E10 (ssDNA) DNA: CTACCTACGATCTGACTAGCAAGGGGATTGGCTCCGGGTCTGGCGTGCTCGGCACCTTTGGCTTACTCTCATGTAGTTCC; 1.69 ratio to no protein

-- ask Fill in binding signal for record AMX202.D6 (ssDNA) DNA: CTACCTACGATCTGACTAGCGGAATGAGAAGGCTGATGGATTGCTCAGGTCTGCTGGCTGCTTACTCTCATGTAGTTCC
-- reply 1.94 ratio to no protein

-- ask Supply binding signal value. Item: AMX202.B8 (ssDNA) DNA: CTACCTACGATCTGACTAGCGGAATGAGTATGCTGATGGATTGCTCAGGTCTGCTGGCTGCTTACTCTCATGTAGTTCC
-- reply 1.66 ratio to no protein

-- ask Dear colleague, please send me the reported binding signal for AMX200.G11 (ssDNA) DNA: CTACCTACGATCTGACTAGCGGAACGAGAATGCTGATGGATTGCTCAGGTCTGCTGGCTGCTTACTCTCATGTAGTTCC when you can.
-- reply 1.73 ratio to no protein
